Known shrunken log2 fold change of a selection of sequences
System: Escherichia coli TOP10
protocol summary: shrunken log2 fold change of peptide-encoding DNA abundance (4.5 h post-induction vs induction); higher = less antimicrobial activity (less host growth inhibition)
study conditions: time post-induction: 4.5 h; library: site-saturation at positions 5, 18, 19, 20

{"ordered residues": "RRIRCRPPRLPRPRPRPHQAPRP", "shrunken log2 fold change": -0.0274}
{"ordered residues": "RRIRCRPPRLPRPRPRPCLWPRP", "shrunken log2 fold change": 0.238}
{"ordered residues": "RRIRPRPPRLPRPRPRPHEHPRP", "shrunken log2 fold change": 0.0125}
{"ordered residues": "RRIRFRPPRLPRPRPRPEYVPRP", "shrunken log2 fold change": -0.15}
{"ordered residues": "RRIRNRPPRLPRPRPRPQEKPRP", "shrunken log2 fold change": -0.198}
{"ordered residues": "RRIRTRPPRLPRPRPRPLTSPRP", "shrunken log2 fold change": -0.255}
{"ordered residues": "RRIRFRPPRLPRPRPRPETKPRP", "shrunken log2 fold change": -0.0125}
{"ordered residues": "RRIRSRPPRLPRPRPRPPGIPRP", "shrunken log2 fold change": 0.157}
{"ordered residues": "RRIRHRPPRLPRPRPRPVANPRP", "shrunken log2 fold change": -0.0206}
{"ordered residues": "RRIRCRPPRLPRPRPRPTLEPRP", "shrunken log2 fold change": 0.0452}
{"ordered residues": "RRIRGRPPRLPRPRPRPPSKPRP", "shrunken log2 fold change": 0.58}
{"ordered residues": "RRIRRRPPRLPRPRPRPSVTPRP", "shrunken log2 fold change": -0.041}
{"ordered residues": "RRIRIRPPRLPRPRPRPNDTPRP", "shrunken log2 fold change": -1.01}
{"ordered residues": "RRIRYRPPRLPRPRPRPIEPPRP", "shrunken log2 fold change": -0.111}

----------
System: Escherichia coli TOP10
protocol summary: shrunken log2 fold change of peptide-encoding DNA abundance (4.5 h post-induction vs induction); higher = less antimicrobial activity (less host growth inhibition)
study conditions: time post-induction: 4.5 h; library: site-saturation at positions 5, 18, 19, 20
Kind request: treat 0.3 as inclusive, so shrunken log2 fold change at 0.3 or higher is Condition met, anything lower is Condition not met.

{"ordered residues": "RRIRLRPPRLPRPRPRPSMEPRP", "cat": "Condition not met"}
{"ordered residues": "RRIRQRPPRLPRPRPRPCRMPRP", "cat": "Condition not met"}
{"ordered residues": "RRIRARPPRLPRPRPRPGWGPRP", "cat": "Condition met"}
{"ordered residues": "RRIRMRPPRLPRPRPRPPYAPRP", "cat": "Condition not met"}
{"ordered residues": "RRIRKRPPRLPRPRPRPHGGPRP", "cat": "Condition not met"}
{"ordered residues": "RRIRKRPPRLPRPRPRPPKRPRP", "cat": "Condition met"}
{"ordered residues": "RRIRARPPRLPRPRPRPTFWPRP", "cat": "Condition met"}
{"ordered residues": "RRIRYRPPRLPRPRPRPAISPRP", "cat": "Condition not met"}
{"ordered residues": "RRIRWRPPRLPRPRPRPICAPRP", "cat": "Condition not met"}
{"ordered residues": "RRIRERPPRLPRPRPRPQAGPRP", "cat": "Condition not met"}

----------
Test system: Escherichia coli TOP10
protocol summary: shrunken log2 fold change of peptide-encoding DNA abundance (4.5 h post-induction vs induction); higher = less antimicrobial activity (less host growth inhibition)
study conditions: time post-induction: 4.5 h; library: site-saturation at positions 5, 18, 19, 20

{"ordered residues": "RRIRARPPRLPRPRPRPSLKPRP", "shrunken log2 fold change": -0.0764}
{"ordered residues": "RRIRFRPPRLPRPRPRPGFEPRP", "shrunken log2 fold change": -0.0266}
{"ordered residues": "RRIRKRPPRLPRPRPRPNPLPRP", "shrunken log2 fold change": 0.0246}
{"ordered residues": "RRIRFRPPRLPRPRPRPEIHPRP", "shrunken log2 fold change": -0.227}
{"ordered residues": "RRIRDRPPRLPRPRPRPVSPPRP", "shrunken log2 fold change": -0.134}
{"ordered residues": "RRIRKRPPRLPRPRPRPLEEPRP", "shrunken log2 fold change": 1.76}
{"ordered residues": "RRIRVRPPRLPRPRPRPDYRPRP", "shrunken log2 fold change": -0.00433}
{"ordered residues": "RRIRQRPPRLPRPRPRPYPQPRP", "shrunken log2 fold change": -0.00227}
{"ordered residues": "RRIRARPPRLPRPRPRPEQWPRP", "shrunken log2 fold change": 0.0858}
{"ordered residues": "RRIRDRPPRLPRPRPRPGDMPRP", "shrunken log2 fold change": 0.164}
{"ordered residues": "RRIRLRPPRLPRPRPRPGLHPRP", "shrunken log2 fold change": -0.401}
{"ordered residues": "RRIRARPPRLPRPRPRPITEPRP", "shrunken log2 fold change": -0.38}
{"ordered residues": "RRIRVRPPRLPRPRPRPENDPRP", "shrunken log2 fold change": -0.0879}
{"ordered residues": "RRIRKRPPRLPRPRPRPGFAPRP", "shrunken log2 fold change": 0.718}
{"ordered residues": "RRIRGRPPRLPRPRPRPENNPRP", "shrunken log2 fold change": 0.502}
{"ordered residues": "RRIRDRPPRLPRPRPRPTWVPRP", "shrunken log2 fold change": 0.323}
{"ordered residues": "RRIRIRPPRLPRPRPRPCDAPRP", "shrunken log2 fold change": -0.27}
{"ordered residues": "RRIRFRPPRLPRPRPRPIIPPRP", "shrunken log2 fold change": -0.677}
{"ordered residues": "RRIRRRPPRLPRPRPRPRWEPRP", "shrunken log2 fold change": 0.0983}
{"ordered residues": "RRIRSRPPRLPRPRPRPDVGPRP", "shrunken log2 fold change": 0.102}

----------
System: Escherichia coli TOP10;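 further: peptides expressed intracellularly from a pBAD plasmid library in pooled LB shake-flask culture, induced with 0.3% L-arabinose, DNA abundance read by NGS, three biological replicates, DESeq2 with apeglm shrinkage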
protocol summary: shrunken log2 fold change of peptide-encoding DNA abundance (4.5 h post-induction vs induction); higher = less antimicrobial activity (less host growth inhibition)
study conditions: time post-induction: 4.5 h; library: site-saturation at positions 5, 18, 19, 20
Known shrunken log2 fold change of a selection of sequences

{"ordered residues": "RRIRPRPPRLPRPRPRPADNPRP", "shrunken log2 fold change": -0.428}
{"ordered residues": "RRIRYRPPRLPRPRPRPPTGPRP", "shrunken log2 fold change": 0.0896}
{"ordered residues": "RRIRWRPPRLPRPRPRPNGFPRP", "shrunken log2 fold change": 0.128}
{"ordered residues": "RRIRVRPPRLPRPRPRPTPTPRP", "shrunken log2 fold change": 0.349}
{"ordered residues": "RRIRQRPPRLPRPRPRPAIVPRP", "shrunken log2 fold change": -0.0943}
{"ordered residues": "RRIRDRPPRLPRPRPRPHIIPRP", "shrunken log2 fold change": -1.27}
{"ordered residues": "RRIRQRPPRLPRPRPRPFAEPRP", "shrunken log2 fold change": -0.00183}
{"ordered residues": "RRIRERPPRLPRPRPRPHCCPRP", "shrunken log2 fold change": -0.0271}
{"ordered residues": "RRIRHRPPRLPRPRPRPQIRPRP", "shrunken log2 fold change": -0.207}
{"ordered residues": "RRIRLRPPRLPRPRPRPVLIPRP", "shrunken log2 fold change": -0.303}
{"ordered residues": "RRIRVRPPRLPRPRPRPARVPRP", "shrunken log2 fold change": 0.263}
{"ordered residues": "RRIRFRPPRLPRPRPRPSEIPRP", "shrunken log2 fold change": -0.345}
{"ordered residues": "RRIRWRPPRLPRPRPRPEVVPRP", "shrunken log2 fold change": -0.0122}
{"ordered residues": "RRIRSRPPRLPRPRPRPDQVPRP", "shrunken log2 fold change": -0.0236}
{"ordered residues": "RRIRWRPPRLPRPRPRPVHCPRP", "shrunken log2 fold change": -0.162}
{"ordered residues": "RRIRPRPPRLPRPRPRPSLQPRP", "shrunken log2 fold change": 0.0128}
{"ordered residues": "RRIRERPPRLPRPRPRPEGRPRP", "shrunken log2 fold change": 0.583}
{"ordered residues": "RRIRARPPRLPRPRPRPRCGPRP", "shrunken log2 fold change": 0.609}
{"ordered residues": "RRIRIRPPRLPRPRPRPQMYPRP", "shrunken log2 fold change": -0.211}
{"ordered residues": "RRIRIRPPRLPRPRPRPSCSPRP", "shrunken log2 fold change": -0.83}
{"ordered residues": "RRIRFRPPRLPRPRPRPGPMPRP", "shrunken log2 fold change": 0.104}
{"ordered residues": "RRIRQRPPRLPRPRPRPITRPRP", "shrunken log2 fold change": 0.0297}
{"ordered residues": "RRIRARPPRLPRPRPRPCFQPRP", "shrunken log2 fold change": 0.105}
{"ordered residues": "RRIRARPPRLPRPRPRPEENPRP", "shrunken log2 fold change": 1.26}
{"ordered residues": "RRIRQRPPRLPRPRPRPCDSPRP", "shrunken log2 fold change": -0.0167}
{"ordered residues": "RRIRMRPPRLPRPRPRPSPHPRP", "shrunken log2 fold change": 0.18}
{"ordered residues": "RRIRIRPPRLPRPRPRPPYCPRP", "shrunken log2 fold change": -0.328}
{"ordered residues": "RRIRMRPPRLPRPRPRPPEGPRP", "shrunken log2 fold change": 0.338}

Numbers sourced from the supplement of paper PMC9112550.
